Documented EC50 across a set of binders
# tested-target: T1, human receptor tyrosine kinase like orphan receptor 1 (ROR1) (human, UniProt Q01973 30-937)
# T1 construct: whole, on cells; Target in all assays is endogenous ROR1 on human tumor cell lines; the cell line is named under assay; also called cell surface ROR1
# T1 sequence (Q01973 30-937): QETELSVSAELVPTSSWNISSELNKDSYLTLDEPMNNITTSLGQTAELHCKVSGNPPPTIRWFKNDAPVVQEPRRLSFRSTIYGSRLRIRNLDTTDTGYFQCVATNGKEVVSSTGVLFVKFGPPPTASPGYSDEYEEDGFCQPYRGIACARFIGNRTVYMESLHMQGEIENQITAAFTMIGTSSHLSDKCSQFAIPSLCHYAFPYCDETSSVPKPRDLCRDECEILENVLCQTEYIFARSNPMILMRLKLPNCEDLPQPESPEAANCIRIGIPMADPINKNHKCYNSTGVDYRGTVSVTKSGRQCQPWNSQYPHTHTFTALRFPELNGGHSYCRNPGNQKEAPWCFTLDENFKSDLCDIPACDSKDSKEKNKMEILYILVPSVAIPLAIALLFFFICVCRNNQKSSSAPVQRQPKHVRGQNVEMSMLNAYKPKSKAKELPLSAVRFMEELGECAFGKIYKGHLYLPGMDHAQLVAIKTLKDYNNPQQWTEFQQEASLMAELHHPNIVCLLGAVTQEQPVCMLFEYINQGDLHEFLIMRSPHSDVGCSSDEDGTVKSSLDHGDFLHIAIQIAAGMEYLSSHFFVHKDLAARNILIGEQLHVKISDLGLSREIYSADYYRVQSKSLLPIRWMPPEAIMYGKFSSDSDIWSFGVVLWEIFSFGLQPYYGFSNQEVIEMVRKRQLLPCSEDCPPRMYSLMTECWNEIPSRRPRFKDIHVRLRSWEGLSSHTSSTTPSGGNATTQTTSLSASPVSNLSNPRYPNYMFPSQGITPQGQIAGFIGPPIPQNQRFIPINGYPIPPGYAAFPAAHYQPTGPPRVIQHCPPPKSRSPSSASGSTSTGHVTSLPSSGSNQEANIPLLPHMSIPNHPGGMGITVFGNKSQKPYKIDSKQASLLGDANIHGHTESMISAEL
# assay-explanation: flow cytometry on Jeko-1 cells (FIG. 3B)
measured-endpoint: EC50 (µg/mL)

[
  {
    "binder": "Ab1 (antibody, human IgG1, kappa, V domains shown, also called unconjugated Ab1; parental antibody Ab1) VH: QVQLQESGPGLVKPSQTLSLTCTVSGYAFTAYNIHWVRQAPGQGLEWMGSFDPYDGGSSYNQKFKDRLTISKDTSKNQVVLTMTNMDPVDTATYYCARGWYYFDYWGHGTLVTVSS VL: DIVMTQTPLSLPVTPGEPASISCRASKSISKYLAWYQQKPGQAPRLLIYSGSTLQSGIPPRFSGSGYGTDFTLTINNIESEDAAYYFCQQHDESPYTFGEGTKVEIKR",
    "unit-info": "µg/mL",
    "measured-result": 0.0165
  },
  {
    "binder": "D10 (antibody, V domains shown, also called antibody D10) VH: QVQLKESGPGLVAPSQTLSITCTVSGFSLTSYGVHWVRQPPGKGLEWLGVIWAGGFTNYNSALKSRLSISKDNSKSQVLLKMTSLQTDDTAMYYCARRGSSYSMDYWGQGTSVIVSS VL: EIVLSQSPAITAASLGQKVTITCSASSNVSYIHWYQQRSGTSPRPWIYEISKLASGVPVRFSGSGSGTSYSLTISSMEAEDAAIYYCQQWNYPLITFGSGTKLEIQ",
    "unit-info": "µg/mL",
    "measured-result": 0.25
  },
  {
    "binder": "ADC-A (antibody, human IgG1, kappa, V domains shown, MC-VC-PAB-MMAE bonded via cysteine residues of the antibody (chain and positions not stated); MC-VC-PAB-MMAE bonded via cysteine residues of the antibody (chain and positions not stated); DAR 3.89 to 5.09, Antibody-drug conjugate of Ab1; also called Ab1-MC-VC-PAB-MMAE) VH: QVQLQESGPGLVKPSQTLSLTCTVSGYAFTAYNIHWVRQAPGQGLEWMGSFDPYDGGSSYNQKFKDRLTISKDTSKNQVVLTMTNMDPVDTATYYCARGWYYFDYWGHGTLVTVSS VL: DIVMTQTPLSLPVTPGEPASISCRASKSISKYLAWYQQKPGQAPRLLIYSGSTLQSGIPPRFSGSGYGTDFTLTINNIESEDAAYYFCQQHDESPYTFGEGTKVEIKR",
    "unit-info": "µg/mL",
    "measured-result": 0.0221
  }
]
